target: human ether-à-go-go-related gene (hERG) potassium channel (human); test: primary screen, population patch clamp on CHO cells stably expressing hERG; higher = less effect of the substance;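 also: peak tail current of the secondary pulse compared with the same well before compound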
Out of some 310,000 compounds screened, about 14,000 (4.5%) showed an effect of 50% or more. Effects have a minus sign here. The sample as a whole holds a higher share of strong results than the screen did.
Measured hERG current change (%, negative = inhibition) at 10uM, listed per entry for reference.
Provide the reading as a plain figure in %.

Solved cases below.
Please list hERG current change (%, negative = inhibition) at 10uM recorded for the compound `CCn1cc(/C=C/C(=O)Nc2ccc(C)cc2Br)cn1` -30.7

Please indicate hERG current change (%, negative = inhibition) at 10uM recorded for `COc1cc(-c2[nH]ncc2CN2CCSCC2)cc(OC)c1OC` -9.26

In one line, give reported hERG current change (%, negative = inhibition) at 10uM of the entry O=C1OCCC1Sc1nc2ccccc2n1Cc1ccccc1 (stereo not drawn) . -46.3

Others:
For the compound O=C1OCCC1Sc1nc2ccccc2c(=O)n1Cc1ccc(F)cc1 (stereo not drawn) , give its measured hERG current change (%, negative = inhibition) at 10uM value. -75.5

Report hERG current change (%, negative = inhibition) at 10uM, nothing else, for this compound: `O=C(Cn1nnc(-c2ccccc2NC(=O)c2ccccc2F)n1)NCc1ccco1` 10.1

Given `CC(C)Cc1nnc(NC(=O)CCC(=O)N2CCC(C)CC2)s1` , respond with its hERG current change (%, negative = inhibition) at 10uM. 0.442

Identify measured hERG current change (%, negative = inhibition) at 10uM corresponding to `Cn1c(=O)n(CCCOc2ccc(Br)cc2)c2ccccc21` -3.96

Answer with the recorded hERG current change (%, negative = inhibition) at 10uM of `Cc1cccc(N(Cc2cc3ccccc3[nH]c2=O)C(=O)c2ccco2)c1C` only. 4.51

Answer with the recorded hERG current change (%, negative = inhibition) at 10uM of C=CCNC(=O)C1(c2ccccc2)CC1(Cl)Cl (stereo not drawn) only. -5.1

Identify measured hERG current change (%, negative = inhibition) at 10uM corresponding to `Nc1nc(NCc2ccccc2)nc(NCc2ccccc2)c1[N+](=O)[O-]` 16.2

Provide only the value of recorded hERG current change (%, negative = inhibition) at 10uM for `CC(C)Cc1nnc(NC(=O)CCC(=O)N2CCN(c3ccc(F)cc3)CC2)s1` 1.08

Respond only with hERG current change (%, negative = inhibition) at 10uM recorded for `COCCCC1CCN(Cc2cn[nH]c2-c2cc(OC)c(OC)c(OC)c2)CC1` -61.8

Please give the documented hERG current change (%, negative = inhibition) at 10uM of COCCn1c(SC2CCOC2=O)nc2ccccc2c1=O (stereo not drawn) -31

Return the recorded hERG current change (%, negative = inhibition) at 10uM value; entry: O=C1OCCC1Sc1nc2ccccc2c(=O)n1Cc1ccccc1 (stereo not drawn) -82.4

---

biological target: human ether-à-go-go-related gene (hERG) potassium channel (human); test: primary screen, population patch clamp on CHO cells stably expressing hERG; higher = less effect of the substance;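 also: peak tail current of the secondary pulse compared with the same well before compound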
The whole screen tested about 310,000 compounds, of which about 14,000 (4.5%) showed an effect of 50% or more. The effect is printed as a negative number. Only a selection was taken, and strong results are over-represented in it overall.
endpoint name: hERG current change (%, negative = inhibition) at 10uM (%)
The response must be a number in % with no trailing unit.

Consider the reported hERG current change (%, negative = inhibition) at 10uM for these molecules:
Report value only: hERG current change (%, negative = inhibition) at 10uM, human ether-à-go-go-related gene (hERG) potassium channel (human), `COc1ccc(C)c2sc(NNC(=O)COc3ccccc3)nc12` 6.35

Quote hERG current change (%, negative = inhibition) at 10uM with test system human ether-à-go-go-related gene (hERG) potassium channel (human) for `OCCN(CCCn1c(-c2ccncc2)nc2ccccc21)c1nc(CN2CCCCC2)cs1` 23.4

Report the value of hERG current change (%, negative = inhibition) at 10uM obtained on human ether-à-go-go-related gene (hERG) potassium channel (human) for `COc1ccccc1N1CCN(Cc2cc(=O)c(OCC(=O)Nc3ccccc3)co2)CC1` . 25.5

Provide hERG current change (%, negative = inhibition) at 10uM, recorded with human ether-à-go-go-related gene (hERG) potassium channel (human), of `O=C(CSc1nnc2c(Cl)cc(C(F)(F)F)cn12)N(Cc1ccccc1)Cc1ccccc1` -28.6

Given `CN(CC(=O)Nc1ccc(Cl)cc1)C(=O)CCNC(=O)c1ccc(Cl)cc1` , report its hERG current change (%, negative = inhibition) at 10uM on human ether-à-go-go-related gene (hERG) potassium channel (human). -67.7

Find hERG current change (%, negative = inhibition) at 10uM for CN(CC(=O)Nc1ccc(Cl)c(C(F)(F)F)c1)C(=O)CCN1C(=O)C2CC=CCC2C1=O (stereo not shown) on human ether-à-go-go-related gene (hERG) potassium channel (human) and write it down. -37.2

Give measured hERG current change (%, negative = inhibition) at 10uM for `Cn1c(=O)c2c(nc(SCCN3CCOCC3)n2C)n(C)c1=O` (human ether-à-go-go-related gene (hERG) potassium channel (human)). 16.9

Fill in: hERG current change (%, negative = inhibition) at 10uM on human ether-à-go-go-related gene (hERG) potassium channel (human), entry `CN(CC(=O)Nc1ccc(Cl)c(C(F)(F)F)c1)C(=O)c1cn2ccccc2n1` -61.9

Enter recorded hERG current change (%, negative = inhibition) at 10uM with human ether-à-go-go-related gene (hERG) potassium channel (human) for `Cc1nc(=S)c2c([nH]1)-c1ccccc1CC21CCCCC1` here. 10.8

Write down measured hERG current change (%, negative = inhibition) at 10uM (human ether-à-go-go-related gene (hERG) potassium channel (human)) for this molecule. CC1=C(C(N)=O)C(c2ccccc2)n2nc(-c3ccncc3)nc2N1 (stereo not shown) 11.2

More entries:
Write down measured hERG current change (%, negative = inhibition) at 10uM (human ether-à-go-go-related gene (hERG) potassium channel (human)) for this molecule. `CC(=O)OCCN(CCCn1c(-c2ccncc2)nc2ccccc21)c1nc(CN2CCCCC2)cs1` -58.5

Please indicate recorded hERG current change (%, negative = inhibition) at 10uM of `C=CCn1c(O)c(C=Nc2ccc(N(CC)CC)cc2)c(=O)[nH]c1=O` measured with human ether-à-go-go-related gene (hERG) potassium channel (human). -7.13

---

Biological target: human ether-à-go-go-related gene (hERG) potassium channel (human, UniProt Q12809);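 also: peak tail current of the secondary pulse compared with the same well before compound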
Sequence (Q12809 whole entry, looked up): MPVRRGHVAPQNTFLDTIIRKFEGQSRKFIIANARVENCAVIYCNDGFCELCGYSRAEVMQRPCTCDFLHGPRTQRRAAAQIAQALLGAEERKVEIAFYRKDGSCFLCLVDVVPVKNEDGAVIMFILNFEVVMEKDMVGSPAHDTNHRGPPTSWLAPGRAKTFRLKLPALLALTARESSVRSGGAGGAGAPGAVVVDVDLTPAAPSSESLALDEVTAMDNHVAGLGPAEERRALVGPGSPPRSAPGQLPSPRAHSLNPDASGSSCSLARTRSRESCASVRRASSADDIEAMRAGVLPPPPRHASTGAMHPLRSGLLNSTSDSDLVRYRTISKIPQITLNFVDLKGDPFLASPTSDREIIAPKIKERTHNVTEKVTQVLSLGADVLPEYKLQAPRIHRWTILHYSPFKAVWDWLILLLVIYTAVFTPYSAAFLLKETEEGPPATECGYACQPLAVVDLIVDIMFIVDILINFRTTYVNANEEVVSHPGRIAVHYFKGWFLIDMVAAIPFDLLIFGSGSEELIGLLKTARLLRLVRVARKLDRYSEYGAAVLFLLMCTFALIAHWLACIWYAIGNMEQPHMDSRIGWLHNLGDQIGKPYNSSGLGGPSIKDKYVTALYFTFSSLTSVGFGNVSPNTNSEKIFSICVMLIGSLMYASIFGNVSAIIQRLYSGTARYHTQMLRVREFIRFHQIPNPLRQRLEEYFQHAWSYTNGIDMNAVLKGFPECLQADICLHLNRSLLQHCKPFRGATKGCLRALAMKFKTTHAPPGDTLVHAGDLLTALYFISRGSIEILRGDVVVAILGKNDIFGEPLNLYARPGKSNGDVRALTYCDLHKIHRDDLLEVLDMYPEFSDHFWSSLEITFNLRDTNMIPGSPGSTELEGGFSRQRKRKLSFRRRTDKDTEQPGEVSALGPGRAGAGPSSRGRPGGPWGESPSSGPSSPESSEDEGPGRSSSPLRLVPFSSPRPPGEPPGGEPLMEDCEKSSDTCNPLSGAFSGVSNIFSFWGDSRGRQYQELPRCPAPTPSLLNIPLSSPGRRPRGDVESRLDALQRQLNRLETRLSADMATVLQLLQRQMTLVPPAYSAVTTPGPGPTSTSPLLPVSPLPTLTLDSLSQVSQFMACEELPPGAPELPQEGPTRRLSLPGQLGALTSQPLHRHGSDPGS
Experiment: primary screen, population patch clamp on CHO cells stably expressing hERG; higher = less effect of the substance
Method: Briefly, Chinese hamster ovary (CHO) cells stably expressing the hERG channel were dislodged from tissue culture flasks and dispensed into PPC plates. […] During the recording, background leak currents were estimated by a 100 ms step to -80 mV from an initial holding potential of -70 mV and subtracted from the subsequent current measurement. The campaign was conducted in two phases using slight differences in recording protocol. […]
The campaign covered roughly 310,000 compounds. About 14,000 (4.5%) showed an effect of 50% or more. Effects have a minus sign here. For the sample, strong results were picked, then their nearest neighbours and some compounds at random.
hERG current change (%, negative = inhibition) at 10uM listing for selected molecules.
Just the number please, in %, no unit attached.

Answer with the recorded hERG current change (%, negative = inhibition) at 10uM for the molecule listed here: `COc1cc2ccccc2cc1C(=O)N1CCN(c2ccccc2O)CC1` -59.7

---
Answer with the recorded hERG current change (%, negative = inhibition) at 10uM for the molecule listed here: `COc1ccc(-c2cc(-c3ccc(O)cc3)nc(N)c2C#N)cc1` 3.91

Indicate the recorded hERG current change (%, negative = inhibition) at 10uM value for this molecule: `CC(C)(CO)NCc1ccccc1OCC(=O)Nc1ccccc1` -14

Find the measured hERG current change (%, negative = inhibition) at 10uM of `CN(C)Cc1nnnn1-c1cccc(-n2nnnc2CN(C)C)c1` and report it. 12.3

Name the recorded hERG current change (%, negative = inhibition) at 10uM of the molecule listed here: `COc1ccccc1N1CCN(C(=O)c2c(-c3ccccc3Cl)noc2C)CC1` -51.2

---

target: human ether-à-go-go-related gene (hERG) potassium channel (human, UniProt Q12809); experiment: primary screen, population patch clamp on CHO cells stably expressing hERG; higher = less effect of the substance;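 also: peak tail current of the secondary pulse compared with the same well before compound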
About 14,000 (4.5%) of roughly 310,000 compounds showed an effect of 50% or more. The effect is printed as a negative number. The sample as a whole holds a higher share of strong results than the screen did.
endpoint name: hERG current change (%, negative = inhibition) at 10uM (%)
Provide the reading as a plain figure in %.

Supply measured hERG current change (%, negative = inhibition) at 10uM of COc1ccc(N2CCN(C(=O)C3(C)CC3(Cl)Cl)CC2)cc1 (stereo not shown) in your reply. 2.66
